# method.summary: PK study in rats, single oral administration
# Format: in vivo
# Design: concentration or dose not given beside the values
# experimental.setup: rat, plasma
value.kind: AUC (ng·h/mL)
// return numeric value only (unit: ng·h/mL, not printed)

Any idea what its AUC is? The compound is C=Cc1cc(CNC(=O)/C=C/c2ccc(C(F)(F)F)nc2N2CCOCC2)cc(F)c1NS(C)(=O)=O [Example 281] 654

Endpoint output: AUC of C#Cc1cc(CNC(=O)/C=C/c2ccc(C(C)(C)C)cc2N2CCOCC2)cc(F)c1NS(C)(=O)=O [drawing 350, reference compound] . Value? 706

====

# target.or.system: vanilloid receptor (Rattus norvegicus, UniProt O35433)
# Construct: DRG nerve cells from the primary culture of 2 days were equilibrated; endogenous in cells; host or cells: primary culture of dorsal root ganglion neurons from neonatal SD rats
# Sequence (O35433 whole entry): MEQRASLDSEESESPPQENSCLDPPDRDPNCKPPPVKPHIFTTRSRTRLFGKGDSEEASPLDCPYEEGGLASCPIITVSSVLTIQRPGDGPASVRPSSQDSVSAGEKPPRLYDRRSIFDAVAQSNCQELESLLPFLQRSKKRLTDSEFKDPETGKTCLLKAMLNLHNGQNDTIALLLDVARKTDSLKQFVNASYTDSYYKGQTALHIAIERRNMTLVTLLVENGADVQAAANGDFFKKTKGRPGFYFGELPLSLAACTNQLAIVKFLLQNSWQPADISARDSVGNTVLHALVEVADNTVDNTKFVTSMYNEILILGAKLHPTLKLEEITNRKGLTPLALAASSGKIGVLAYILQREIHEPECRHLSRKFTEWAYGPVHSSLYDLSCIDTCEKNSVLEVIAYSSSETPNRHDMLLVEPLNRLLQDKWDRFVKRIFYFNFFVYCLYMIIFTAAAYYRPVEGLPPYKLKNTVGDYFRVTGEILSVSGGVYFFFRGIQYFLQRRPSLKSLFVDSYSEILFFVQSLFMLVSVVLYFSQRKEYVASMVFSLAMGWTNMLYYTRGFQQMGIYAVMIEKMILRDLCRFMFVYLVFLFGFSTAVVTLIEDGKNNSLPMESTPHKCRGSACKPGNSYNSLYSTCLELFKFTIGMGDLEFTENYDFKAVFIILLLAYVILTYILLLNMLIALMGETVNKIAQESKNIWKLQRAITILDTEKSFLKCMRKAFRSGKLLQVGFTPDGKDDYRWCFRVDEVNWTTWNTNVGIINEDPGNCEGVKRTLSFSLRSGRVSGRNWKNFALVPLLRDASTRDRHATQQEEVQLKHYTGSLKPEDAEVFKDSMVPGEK
# method.summary: 45Ca influx test in cultured neonatal rat DRG neurons, inhibition of capsaicin response
# Type: cell-based
# experimental.setup: neonatal rat DRG neurons, capsaicin 0.5 μM, 45Ca influx; read-out: Antagonist Calcium Uptake Test (IC50)
Strictly below 500 nM in IC50: 1. Otherwise: 0.

Is IC50 strictly under 500 nM for the entry `CCCN(C)c1nc(C(F)(F)F)ccc1/C=C/C(=O)NCc1ccc(NS(C)(=O)=O)c(F)c1` ? 1

Check if IC50 falls below 500 nM for `CC(C)(C)c1cc(C(F)(F)F)c(/C=C/C(=O)NCc2ccc(NS(C)(=O)=O)c(F)c2)cn1` . 0

State whether 500 nM exceeds IC50 recorded for `CC(C)(C)c1ccc(OCC(=O)NCc2ccc(NS(C)(=O)=O)c(F)c2)c(Cl)n1` . 0
